System: 621-103 (TSC2-rescued);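 also: immortalized renal angiomyolipoma cells stably carrying empty vector or TSC2, dosed in 384-well plates in DMEM, viability normalized to vehicle-treated wells within each plate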
Assay: relative viability vs DMSO; higher = less cytotoxic
Conditions: 0.01 µM; serum: 10% FBS; 72 h
value.kind: relative viability (%)

1. C[C@H](Cn1cnc2c(N)ncnc21)OCP(=O)(O)O ... 103
2. CCCCCOC(=O)Nc1nc(=O)n([C@@H]2O[C@H](C)[C@@H](O)[C@H]2O)cc1F ... 101
3. COC(=O)N1CCN(Cc2cccc(NC(=O)Nc3ccc(C)nc3)c2F)CC1 ... 110
4. CCN(CC)Cc1ccc2cc(COC(=O)Nc3ccc(C(=O)NO)cc3)ccc2c1 ... 96
5. Cc1cc(Nc2nc(N[C@@H](C)c3ncc(F)cn3)ncc2Cl)[nH]n1 ... 86.7
6. CC(=O)SCC(Cc1ccccc1)C(=O)NCC(=O)OCc1ccccc1 (configuration not stated) ... 101
7. C/C(=C\c1csc(C)n1)[C@@H]1C[C@@H]2O[C@@H]2CCC[C@H](C)[C@H](O)[C@@H](C)C(=O)C(C)(C)[C@@H](O)CC(=O)O1 ... 44
8. Oc1ccc(-c2nc(-c3ccc(F)cc3)c(-c3ccncc3)[nH]2)cc1 ... 99.5
9. CC[C@@]1(O)C(=O)OCc2c1cc1n(c2=O)Cc2cc3ccccc3nc2-1 ... 96.3
10. CCO[C@@H]1OC(=O)C[C@@H]1NC(=O)[C@@H]1CCCN1C(=O)[C@@H](NC(=O)c1ccc(N)c(Cl)c1)C(C)(C)C ... 101
11. C[N+]1(C)[C@@H]2C[C@@H](OC(=O)C(O)(c3cccs3)c3cccs3)C[C@H]1[C@@H]1O[C@@H]12 [Tiotropium Bromide hydrate] ... 106
12. COC[C@@H](c1ccc(C(F)(F)F)cc1)N1CCN(C2(C)CCN(C(=O)c3c(C)ncnc3C)CC2)C[C@@H]1C [Vicriviroc Malate] ... 101
